Kindly supply the reported pIC50 values for the records listed here.
Target: human KCNK13 (Homo sapiens)
Construct: expressed in transfected cells
Sequence (Q9HB14 whole entry): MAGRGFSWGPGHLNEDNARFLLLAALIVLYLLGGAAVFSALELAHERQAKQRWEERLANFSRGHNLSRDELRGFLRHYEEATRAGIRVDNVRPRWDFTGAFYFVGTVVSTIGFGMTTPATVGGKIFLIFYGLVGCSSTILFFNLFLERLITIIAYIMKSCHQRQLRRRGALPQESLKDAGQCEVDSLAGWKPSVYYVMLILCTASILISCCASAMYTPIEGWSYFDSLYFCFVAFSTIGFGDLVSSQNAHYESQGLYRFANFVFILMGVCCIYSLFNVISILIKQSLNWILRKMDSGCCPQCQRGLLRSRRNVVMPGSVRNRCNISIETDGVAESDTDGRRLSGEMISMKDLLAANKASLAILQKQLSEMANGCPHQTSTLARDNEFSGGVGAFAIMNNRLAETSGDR
Assay: KCNK13 antagonist activity, thallium (Tl+) flux FLIPR assay
Type: cell-based
Description: KCNK13 antagonist activity was determined by measuring changes in intracellular Thallium (Tl^+) concentrations using a Tl^+ sensitive fluorescent dye. The changes in fluorescent signal were monitored by Fluorescent Imaging Plate Reader (FLIPR™) technology available from Molecular Devices, LLC, US. KCNK13 mediated increases in intracellular Tl+concentration were readily detected by addition of a thallium sulfate stimulus. […] The IC50 values were determined from ten point concentration response curves. […]
pIC50: −log10 of the molar value.

// query Recorded pIC50 for Nc1nonc1-c1nc2ncc(F)cc2n1Cc1ccc(Cl)nc1 [Example 159] , please?
// result > 7.30

// query Looking for the measured pIC50 of Nc1nonc1-c1nc2cccnc2n1Cc1cncnc1 [Example 15] , can you help?
// result > 6.70

// query // returns reported pIC50 for input Cc1nonc1-c1nc2c(F)cccc2n1Cc1ccc(Cl)nc1 [Example 39]
// result > 6.70

// query # query: pIC50 of entry Nc1nonc1-c1nc2cccnc2n1Cc1ccc(Cl)nc1 [Example 23]
// result > 7.30

// query For Cc1nonc1-c1nc2cccnc2n1Cc1ccc(Cl)nc1 [Example 24] , what is its reported pIC50?
// result > 7.00

// query I would be grateful if you could share the reported pIC50 for Nc1nonc1-c1nc2cc(F)cnc2n1Cc1ccc(Cl)nc1 [Example 29] .
// result > 7.30

// query Can you look up the measured pIC50 of Nc1nonc1-c1nc2ccccc2n1Cc1cncnc1 [Example 21] for me?
// result > 7.30

---

Task for the reader: assign each of the following compounds its reported pIC50.
Biological target: human KCNK13 (Homo sapiens)
Construct: expressed in transfected cells
Experiment: KCNK13 antagonist activity, thallium (Tl+) flux FLIPR assay
Assay type: cell-based
Conditions: HEK 293 cells stably expressing human KCNK13; Tl+ sensitive dye, FLIPR; compounds 15 minutes prior to thallium sulfate; 10 point half log curves from 10 PM; read-out: hKCNK13 IC50
pIC50: −log10 of the molar value.

// query So what pIC50 did Cc1cnoc1-c1nc2ccccc2n1Cc1cccnc1 get with human KCNK13 (Homo sapiens)?
// result > 7.00

// query Provide value of pIC50 for this record tested with human KCNK13 (Homo sapiens): Cc1nonc1-c1nc2cccc(F)c2n1Cc1cncnc1
// result > 7.00

// query Recall the recorded pIC50 for Nc1nonc1-c1nc2c(F)ccc(F)c2n1Cc1cccnn1 with human KCNK13 (Homo sapiens) and state it.
// result > 7.30

// query Give human KCNK13 (Homo sapiens) pIC50 for Cc1nonc1-c1nc2ccccc2n1Cc1cccnc1C#N
// result > 6.70

// query API: value(readout=pIC50, system=human KCNK13 (Homo sapiens)) for record Cc1snnc1-c1nc2c(F)cccc2n1Cc1cccnc1 (single isomer, unassigned)
// result > 7.00

// query Query the reported pIC50 for human KCNK13 (Homo sapiens); item: Cc1nonc1-c1nc2ccccc2n1Cc1ncccc1F
// result > 6.00

// query Write down the reported pIC50 of COc1cc(Cn2c(-c3nonc3N)nc3ccccc32)ccn1 , test system: human KCNK13 (Homo sapiens).
// result > 7.30

// query Lab request: please report pIC50 under test system human KCNK13 (Homo sapiens) for Cc1conc1-c1nc2ccccc2n1Cc1cccnc1
// result > 6.70

// query API: value(readout= pIC50, system= human KCNK13 (Homo sapiens), query= Cc1nonc1-c1nc2cccnc2n1Cc1cncnc1 )
// result > 6.70

// query Form entry - test system: human KCNK13 (Homo sapiens); read-out: pIC50; compound: Cc1nonc1-c1nc2ccncc2n1Cc1cccnc1
// result > 6.30

// query Tell me reported pIC50 for N#Cc1ncc(Cn2c(-c3nonc3N)nc3c(F)cccc32)cn1 (single isomer, unassigned) , tested with human KCNK13 (Homo sapiens).
// result > 7.00

---

Please provide measured IC50 for the entries that follow.
Biological target: human KCNK13 (Homo sapiens)
Construct: expressed in transfected cells
Experiment: KCNK13 antagonist activity, thallium (Tl+) flux FLIPR assay
Assay type: cell-based
Settings: HEK 293 cells stably expressing human KCNK13; Tl+ sensitive dye, FLIPR; compounds 15 minutes prior to thallium sulfate; 10 point half log curves from 10 PM; read-out: hKCNK13 IC50

// query Form field: reported IC50 of CNc1nsnc1-c1nc2cccc(F)c2n1Cc1cccnn1 [Example 143]
// result < 200 nM

// query What value of measured IC50 is listed for Nc1nonc1-c1nc2ccccc2n1Cc1ccc(C(F)(F)F)nc1 [Example 97] ?
// result < 100 nM

// query // IC50 lookup, key: Nc1nonc1-c1nc2cccc(F)c2n1Cc1ccc(C(F)(F)F)nn1 (single isomer, unassigned) [Example 166]
// result < 100 nM

// query Would you kindly share the measured IC50 for Nc1nonc1-c1nc2cccnc2n1Cc1cccnc1 [Example 59] ?
// result < 200 nM

// query Entry under review: Nc1nonc1-c1nc2ccccc2n1Cc1ccnc(C(F)(F)F)c1 [Example 94] . Reported IC50?
// result < 100 nM

// query Return reported IC50; argument: Fc1nsnc1-c1nc2ccccc2n1Cc1cccnc1 [Example 108]
// result < 500 nM

// query Could you tell me which IC50 is on file for Cc1nonc1-c1nc2cccnc2n1Cc1cccnn1 [Example 20] ?
// result < 1000 nM

// query For the compound Cc1nonc1-c1nc2c(F)cccc2n1Cc1ccc(C#N)nn1 [Example 47] , what IC50 is on record?
// result < 200 nM

// query I have this compound here, Nc1nocc1-c1nc2cccc(F)c2n1Cc1cccnn1 [Example 158] , and I need its recorded IC50.
// result < 5000 nM

// query What measured IC50 goes with Nc1nonc1-c1nc2c(F)cccc2n1Cc1ccncc1 (single isomer, unassigned) [Example 121] ?
// result < 100 nM

// query Returns the measured IC50 for the input compound. Input: COc1ccc(Cn2c(-c3nonc3C)nc3ccccc32)cn1 [Example 53]
// result < 100 nM

// query Entry under review: Cc1nonc1-c1nc2cccc(Cl)c2n1Cc1ccc(C#N)nc1 (single isomer, unassigned) [Example 62] . Reported IC50?
// result < 200 nM

// query Recorded IC50 for CC(c1cccnc1)n1c(-c2nonc2N)nc2ccccc21 (racemic) [Example 85] , please?
// result < 5000 nM

// query Tell me the measured IC50 of CNc1nonc1-c1nc2cccc(F)c2n1Cc1cccnn1 [Example 178] , please.
// result < 5000 nM

// query Quick one: IC50 of N#Cc1ncc(Cn2c(-c3nonc3N)nc3ccc(F)c(F)c32)cn1 [Example 2] ?
// result < 50 nM

// query Which IC50 reading was recorded for the compound Nc1nonc1-c1nc2ccccc2n1Cc1cccnc1 [Example 90] ?
// result < 50 nM

// query Can you share its IC50? I mean this compound: N#Cc1ncc(Cn2c(-c3nonc3N)nc3cccnc32)cn1 [Example 11]
// result < 200 nM

// query Which value of IC50 has been reported for N#Cc1cnc(Cn2c(-c3nonc3N)nc3c(F)cccc32)cn1 [Example 36] in the records?
// result < 100 nM

// query For Cc1nonc1-c1nc2ccccc2n1Cc1cccnc1 [Example 101] , what is its reported IC50?
// result < 100 nM

// query Query: IC50; subject: Nc1nonc1-c1nc2c(F)cc(F)cc2n1Cc1cccnn1 [Example 142]
// result < 200 nM

// query Quick check: IC50 of Nc1nonc1-c1nc2cccc(F)c2n1Cc1cccnc1 (single isomer, unassigned) [Example 86] ?
// result < 50 nM

// query Can you look up the measured IC50 of N#Cc1ccc(Cn2c(-c3nonc3N)nc3cccnc32)cn1 [Example 51] for me?
// result < 500 nM

// query Which IC50 value belongs to Nc1nonc1-c1nc2ccc(F)cc2n1Cc1cccnc1 (single isomer, unassigned) [Example 118] ?
// result < 50 nM

// query Consider the compound Cc1nonc1-c1nc2cccc(F)c2n1Cc1cnc(C#N)nc1 [Example 44] and give its measured IC50.
// result < 50 nM

// query If you can, please state the reported IC50 value of Nc1nonc1-c1nc2c(F)cccc2n1Cc1ccncn1 (single isomer, unassigned) [Example 135] .
// result < 200 nM

// query // IC50 lookup, key: Cc1nonc1-c1nc2cc(F)cc(F)c2n1Cc1cccnn1 (single isomer, unassigned) [Example 146]
// result < 50 nM

// query What value of IC50 has been reported for the following compound? Nc1nonc1-c1nc2c(F)cccc2n1Cc1cccnn1 [Example 179]
// result < 200 nM

// query Param item = CN(C)c1ccc2c(c1)nc(-c1nonc1N)n2Cc1cccnc1 [Example 34] ; retrieve measured IC50.
// result < 1000 nM

// query For the compound shown here, Cc1nonc1-c1nc2ccccc2n1Cc1ccc(Cl)nc1 [Example 60] , give the reported IC50.
// result < 100 nM

// query Can you look up the measured IC50 of Cc1nonc1-c1nc2ccc(F)cc2n1Cc1ccc(C#N)nc1 [Example 55] for me?
// result < 100 nM

// query Value lookup for IC50; key = CNc1nsnc1-c1nc2ccccc2n1Cc1cccnc1 [Example 96]
// result < 100 nM

// query Reported IC50 for Cc1cn(C)nc1-c1nc2ccccc2n1Cc1cccnc1 [Example 113] : what is it?
// result < 500 nM

// query I would be grateful if you could share the reported IC50 for Cc1cccnc1Cn1c(-c2nonc2C)nc2ccccc21 [Example 69] .
// result < 200 nM

// query Look up IC50 for this compound: Cc1nonc1-c1nc2cccc(F)c2n1Cc1ccc(C#N)nc1 [Example 52]
// result < 100 nM

// query Dear colleague, I am looking for the recorded IC50 of the following compound: Nc1nonc1-c1nc2cccc(F)c2n1Cc1ccncn1 (single isomer, unassigned) [Example 134]
// result < 50 nM

// query For the compound Nc1nonc1-c1nc2c(F)ccc(F)c2n1Cc1ccncc1 [Example 155] , what IC50 is on record?
// result < 50 nM

// query # query: IC50 of entry Cc1nonc1-c1nc2cccc(F)c2n1Cc1ccc(S(C)(=O)=O)nc1 (single isomer, unassigned) [Example 137]
// result < 500 nM
